System Under Test: Serine/threonine-protein kinase ULK1 (Homo sapiens)
Sequence (O75385 whole entry): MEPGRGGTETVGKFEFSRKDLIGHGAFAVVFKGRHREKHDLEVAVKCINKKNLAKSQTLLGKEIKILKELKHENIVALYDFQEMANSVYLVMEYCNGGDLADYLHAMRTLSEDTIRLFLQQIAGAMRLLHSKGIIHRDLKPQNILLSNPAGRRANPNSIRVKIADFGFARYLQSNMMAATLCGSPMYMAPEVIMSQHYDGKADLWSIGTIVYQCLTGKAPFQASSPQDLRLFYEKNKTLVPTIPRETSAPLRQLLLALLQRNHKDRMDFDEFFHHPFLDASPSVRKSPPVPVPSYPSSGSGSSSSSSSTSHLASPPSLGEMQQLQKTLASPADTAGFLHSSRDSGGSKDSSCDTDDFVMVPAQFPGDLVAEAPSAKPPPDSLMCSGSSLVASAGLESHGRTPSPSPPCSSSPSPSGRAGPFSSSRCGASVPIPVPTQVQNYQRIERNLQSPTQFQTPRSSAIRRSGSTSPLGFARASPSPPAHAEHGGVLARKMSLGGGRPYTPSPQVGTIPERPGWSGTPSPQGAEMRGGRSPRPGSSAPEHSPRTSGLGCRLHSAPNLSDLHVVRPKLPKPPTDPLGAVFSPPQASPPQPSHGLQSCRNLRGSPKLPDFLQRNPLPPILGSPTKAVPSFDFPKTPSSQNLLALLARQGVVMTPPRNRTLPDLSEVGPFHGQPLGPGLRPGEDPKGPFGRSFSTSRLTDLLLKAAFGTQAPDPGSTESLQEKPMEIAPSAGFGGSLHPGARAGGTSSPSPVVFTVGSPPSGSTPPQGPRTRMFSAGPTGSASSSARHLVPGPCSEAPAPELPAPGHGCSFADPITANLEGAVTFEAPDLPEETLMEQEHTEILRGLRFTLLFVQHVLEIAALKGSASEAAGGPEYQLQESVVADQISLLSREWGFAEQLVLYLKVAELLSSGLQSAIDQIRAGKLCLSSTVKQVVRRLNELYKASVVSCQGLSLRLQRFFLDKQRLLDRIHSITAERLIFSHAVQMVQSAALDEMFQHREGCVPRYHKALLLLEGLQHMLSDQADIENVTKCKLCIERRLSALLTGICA
Experimental Details: Inhibition of recombinant human ULK1 (1-649) expressed in Sf9 cells using myelin basic protein as substrate by ADP-glo assay
pIC50: −log10 of the molar value.
Measured Attribute: pIC50

FC1(F)Oc2ccc(Nc3ncc(C(F)(F)F)c(NC4CC4)n3)cc2O1 ... 7.38
Nc1ccc(Nc2ncc(C(F)(F)F)c(NC3CC3)n2)cc1 ... 7.70
FC(F)(F)c1cnc(Nc2ccc3c(c2)OCCCO3)nc1NC1CC1 ... 8.15
O=C(Nc1ccc(Nc2ncc(C(F)(F)F)c(NC3CC3)n2)cc1)C1CC1 ... 7.89
O=C1CCCc2cc(Nc3ncc(C(F)(F)F)c(NC4CC4)n3)ccc21 ... 8.52

a. CCN1CCOc2cc(Nc3ncc(C(F)(F)F)c(NC4CC4)n3)cnc21
b. FC(F)(F)c1cnc(Nc2cnc3ccccc3c2)nc1NC1CC1
// select label with min value of measured pIC50 from [ a , b ] // output: label of the selected item a
